target: human 5-HT1D receptor (Homo sapiens, UniProt P28221); construct: host or cells: HEK293T; assay: cAMP accumulation (LANCE Ultra TR-FRET) in HEK293T cells, WT 5-HT1D; assay type: cell-based; details: WT receptor; cAMP accumulation, HEKt cells; mean ± SD; read-out: 5-HT1D pEC50 (converted)
Sequence (P28221 whole entry): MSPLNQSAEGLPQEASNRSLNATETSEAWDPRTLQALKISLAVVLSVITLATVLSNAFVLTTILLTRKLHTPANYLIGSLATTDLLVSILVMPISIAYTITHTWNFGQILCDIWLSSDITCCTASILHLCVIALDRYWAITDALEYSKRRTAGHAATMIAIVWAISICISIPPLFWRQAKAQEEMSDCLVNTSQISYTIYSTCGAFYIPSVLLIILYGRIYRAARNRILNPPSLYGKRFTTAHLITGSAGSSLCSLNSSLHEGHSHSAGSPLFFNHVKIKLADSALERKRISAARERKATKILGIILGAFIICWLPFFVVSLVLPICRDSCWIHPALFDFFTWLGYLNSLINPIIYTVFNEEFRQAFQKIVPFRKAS
In this section, each of the molecules is paired with its reported EC50.
quantity-name: EC50

INSERT INTO results (molecule, system, endpoint_result) VALUES
  ('Fc1ccccc1-c1cccc2c1CC[C@H](N1CCNCC1)C2', 'human 5-HT1D receptor (Homo sapiens, UniProt P28221)', '148 nM'),
  ('CN(C)[C@H]1CCc2c(cccc2-c2cccc3c2oc2ccccc23)C1', 'human 5-HT1D receptor (Homo sapiens, UniProt P28221)', '4.37 nM'),
  ('O=C1CC2(CCCC2)CC(=O)N1CCCCN1CCN(c2ncccn2)CC1 [Buspirone, buspirone, reference compound]', 'human 5-HT1D receptor (Homo sapiens, UniProt P28221)', '> 10000 nM'),
  ('Fc1ccccc1-c1cccc2c1CC[C@H](N1CCCC1)C2 [(S)-PFPT]', 'human 5-HT1D receptor (Homo sapiens, UniProt P28221)', '57.5 nM');
